observable: melting point (°C)
Write it as a number; the unit °C goes unstated.

substance-smiles	melting point, °C
COc1ccc2c(c1)C(c1ccc(Cl)cc1)=N[C@@H](CC(=O)Nc1nccs1)c1nnc(C)n1-2	249

stdin: Query: melting point; subject: COc1ccc2c(c1)C(c1ccc(Cl)cc1)=N[C@@H](CC(=O)Nc1ccncc1)c1nnc(C)n1-2
stdout: 223

stdin: Look at this compound and give its reported melting point. COc1ccc2c(c1)C(c1ccc(Cl)cc1)=N[C@@H](CC(=O)Nc1ccccc1F)c1nnc(C)n1-2
stdout: 264

stdin: Requested read-out: melting point. Entry: COc1ccc2c(c1)C(c1ccc(Cl)cc1)=N[C@@H](CC(=O)Nc1cccc(F)c1)c1nnc(C)n1-2
stdout: 248
